IC50, human hematopoietic synthase (Homo sapiens), per-entry values.
quantity.measured: IC50 (nM)

Some solved cases for reference:
[
  {
    "structure.as.smiles": "Cc1[nH]c(C(=O)N2CCOCC2)c(C)c1-c1nc2cc(Oc3ccccc3)ccc2[nH]1",
    "IC50 [nM]": 870
  },
  {
    "structure.as.smiles": "Cc1oc(C(N)=O)c(C)c1-c1nc2cc(C(=O)c3ccccc3)ccc2[nH]1",
    "IC50 [nM]": 274
  },
  {
    "structure.as.smiles": "Cc1[nH]c(C(=O)O)c(C)c1-c1nc2cc(Oc3ccccc3)ccc2[nH]1",
    "IC50 [nM]": 491
  },
  {
    "structure.as.smiles": "Cc1[nH]c(C(=O)Nc2ccc(C#N)cc2)c(C)c1-c1nc2cc(C(=O)c3ccccc3)ccc2[nH]1",
    "IC50 [nM]": 309
  }
]

P. Cc1[nH]c(C(=O)Nc2ccc3c(c2)OCO3)c(C)c1-c1nc2cc(C(=O)c3ccccc3)ccc2[nH]1
Q. Cc1oc(C(N)=O)c(C)c1-c1nc2cc(Oc3ccccc3)ccc2[nH]1
## Input # returns the entry with the larger IC50; inputs P and Q Write the label of whichever entry you select.
## Output Q
(Q: 109 nM, P: 53 nM)

###

# maps each entry to its melting point

Known melting point results, listed for orientation:
[
  {
    "structure.as.smiles": "Cc1[nH]c(C=O)c(C)c1-c1nc2cc(C(=O)c3ccccc3)ccc2[nH]1",
    "value.measured": "253 to 255 °C"
  },
  {
    "structure.as.smiles": "Cc1coc(C)c1-c1nc2cc(C(=O)c3ccccc3)ccc2[nH]1",
    "value.measured": "203 to 208 °C"
  },
  {
    "structure.as.smiles": "Cc1[nH]c(C(=O)N2CCC(C(=O)NCCN(C)C)CC2)c(C)c1-c1nc2cc(C(=O)c3ccccc3)ccc2[nH]1",
    "value.measured": "258 to 260 °C"
  },
  {
    "structure.as.smiles": "Cc1oc(C(N)=O)c(C)c1-c1nc2cc(C(=O)c3ccccc3)ccc2[nH]1",
    "value.measured": "143 to 146 °C"
  },
  {
    "structure.as.smiles": "O=C(c1ccccc1)c1ccc2nc(-c3ccc[nH]3)[nH]c2c1",
    "value.measured": "128 to 133 °C"
  },
  {
    "structure.as.smiles": "O=C(c1ccccc1)c1ccc2[nH]c(-c3c[nH]c(C(=O)O)c3)nc2c1",
    "value.measured": "239 to 241 °C"
  },
  {
    "structure.as.smiles": "CCOC(=O)c1c(C)[nH]c(-c2nc3cc(C(=O)c4ccccc4)ccc3[nH]2)c1C",
    "value.measured": "185 to 187 °C"
  }
]

## Input melting point lookup needed for CCOC(=O)c1[nH]c(C)c(-c2nc3cc(Oc4ccccc4)ccc3[nH]2)c1C , thanks.
## Output 239 to 242 °C

###

- tested.target: human hematopoietic synthase (Homo sapiens, UniProt O60760)
- Sequence (O60760 whole entry): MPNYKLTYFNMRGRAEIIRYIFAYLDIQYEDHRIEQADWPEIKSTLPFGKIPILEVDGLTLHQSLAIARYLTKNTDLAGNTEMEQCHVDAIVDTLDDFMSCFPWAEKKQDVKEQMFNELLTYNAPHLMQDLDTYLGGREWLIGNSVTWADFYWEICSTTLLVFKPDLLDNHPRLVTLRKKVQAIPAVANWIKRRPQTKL
quantity.measured: IC50 (nM)

Answered examples (2):
[
  {
    "structure.as.smiles": "Cc1[nH]c(C(=O)N2CCCC2)c(C)c1-c1nc2cc(C(=O)c3ccccc3)ccc2[nH]1",
    "tested.target": "human hematopoietic synthase (Homo sapiens, UniProt O60760)",
    "value.measured": 351
  },
  {
    "structure.as.smiles": "CCOC(=O)C1CCN(C(=O)c2[nH]c(C)c(-c3nc4cc(C(=O)c5ccccc5)ccc4[nH]3)c2C)CC1",
    "tested.target": "human hematopoietic synthase (Homo sapiens, UniProt O60760)",
    "value.measured": 1670
  }
]

a. O=C(c1ccccc1)c1ccc2[nH]c(-c3c[nH]c(C(=O)O)c3)nc2c1
b. Cc1[nH]c(C(=O)N(C)CCN(C)C)c(C)c1-c1nc2cc(C(=O)c3ccccc3)ccc2[nH]1
## Input I'm curious whether a or b has the smaller IC50 number. Which is it? # respond with the chosen item's label
## Output b
(b: 269 nM, a: 1450 nM)
